Target: TLR7 (Homo sapiens)
Sequence (Q9NYK1 27-1049): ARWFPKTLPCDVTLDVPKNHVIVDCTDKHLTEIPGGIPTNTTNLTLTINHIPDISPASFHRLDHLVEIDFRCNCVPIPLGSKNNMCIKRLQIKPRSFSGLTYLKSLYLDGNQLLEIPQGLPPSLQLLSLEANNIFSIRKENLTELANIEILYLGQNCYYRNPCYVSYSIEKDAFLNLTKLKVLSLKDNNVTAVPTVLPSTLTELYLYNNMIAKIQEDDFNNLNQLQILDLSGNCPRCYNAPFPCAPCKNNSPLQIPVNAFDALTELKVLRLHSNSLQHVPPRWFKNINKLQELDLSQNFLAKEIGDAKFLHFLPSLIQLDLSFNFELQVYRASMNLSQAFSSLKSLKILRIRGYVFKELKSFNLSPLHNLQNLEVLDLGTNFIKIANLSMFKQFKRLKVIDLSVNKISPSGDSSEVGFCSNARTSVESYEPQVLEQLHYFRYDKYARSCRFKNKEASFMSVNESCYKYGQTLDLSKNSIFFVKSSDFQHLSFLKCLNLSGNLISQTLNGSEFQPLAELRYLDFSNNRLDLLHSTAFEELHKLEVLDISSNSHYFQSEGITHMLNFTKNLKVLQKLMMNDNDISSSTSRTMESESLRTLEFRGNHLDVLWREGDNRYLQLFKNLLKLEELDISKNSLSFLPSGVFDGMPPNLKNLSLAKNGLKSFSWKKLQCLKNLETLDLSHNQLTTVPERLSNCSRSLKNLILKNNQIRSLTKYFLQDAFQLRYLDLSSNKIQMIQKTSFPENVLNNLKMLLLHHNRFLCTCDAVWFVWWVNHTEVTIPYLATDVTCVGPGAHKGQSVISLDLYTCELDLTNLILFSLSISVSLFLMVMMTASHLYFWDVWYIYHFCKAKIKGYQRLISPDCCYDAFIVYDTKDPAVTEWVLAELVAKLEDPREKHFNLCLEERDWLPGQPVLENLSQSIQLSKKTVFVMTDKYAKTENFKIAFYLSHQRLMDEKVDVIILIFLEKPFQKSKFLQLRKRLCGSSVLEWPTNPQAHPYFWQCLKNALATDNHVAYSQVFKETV
Assay: HEK/293 TLR7 Cell Assay
Conditions: TLR7/NFKb HEK cells, R848 agonist 10 uM final concentration, Steady-Glo readout; read-out: TLR7 potency
pIC50: −log10 of the molar value. Counter-ions that a name gives are not always drawn.
For each record, write down the corresponding pIC50.

Fill blank: measured pIC50 of the compound N#Cc1ncc(N2C[C@@H](C(=O)NCC3(F)CCNCC3)O[C@@H](C(F)(F)F)C2)c2cccnc12 (single isomer, unassigned) [Example 318] is ____.
< 6.82

Fill blank: measured pIC50 of the compound CN1CCC(O)(CC(=O)N[C@@H]2C[C@H](C(F)(F)F)CN(c3ccc(C#N)c4ncccc34)C2)CC1 [Example 73] is ____.
6.82 to 7.12

Fill blank: measured pIC50 of the compound C[C@@H]1CN(c2ccc(C#N)c3nccnc23)C[C@H](CN2CCC(F)(F)C2)O1 [Example 215] is ____.
6.82 to 7.12

Fill blank: measured pIC50 of the compound C[C@@H](C(=O)N[C@@H]1C[C@H](C(F)(F)F)CN(c2ccc(C#N)c3ncccc23)C1)N1CCN(C)CC1 (single isomer, unassigned) [Example 101] is ____.
> 7.12

Fill blank: measured pIC50 of the compound C[C@H]1C[C@@H](NCC2(O)CCOCC2)CN(c2ccc(C#N)c3nccnc23)C1 [Example 14] is ____.
> 7.12

Fill blank: measured pIC50 of the compound N#Cc1ccc(N2C[C@H](NC(=O)[C@@H]3CCCN3)C[C@H](C(F)(F)F)C2)c2cccnc12 [Example 125] is ____.
> 7.12

Fill blank: measured pIC50 of the compound C[C@@H]1CN(c2ccc(C#N)c3nccnc23)C[C@H](C(=O)NC[C@H](O)CO)O1 [Example 234] is ____.
6.82 to 7.12

Fill blank: measured pIC50 of the compound C[C@@H]1CN(c2ccc(C#N)c3ncncc23)C[C@H](C(=O)NC2CCNCC2(F)F)O1 (some centres unmarked) [Example 299] is ____.
> 7.12

Fill blank: measured pIC50 of the compound CN1CC[C@@](F)(CNC(=O)[C@H]2CN(c3ccc(C#N)c4nccnc34)C[C@@H](C(F)(F)F)O2)C1 (single isomer, unassigned) [Example 355] is ____.
> 7.12

Fill blank: measured pIC50 of the compound CC(C(=O)N[C@@H]1C[C@H](C)CN(c2cnc(C#N)c3nccnc23)C1)N1CCN(C)CC1 (some centres unmarked) [Example 190] is ____.
6.82 to 7.12

Fill blank: measured pIC50 of the compound C[C@H]1C[C@@H](NC(=O)C[C@@H](O)CN(C)C)CN(c2ccc(C#N)c3nccnc23)C1 [Example 211] is ____.
> 7.12

Fill blank: measured pIC50 of the compound CC(C(=O)N[C@@H]1C[C@H](C(F)(F)F)CN(c2ccc(C(F)(F)F)c3ncccc23)C1)N1CCN(C)CC1 (single isomer, unassigned) [Example 94] is ____.
6.82 to 7.12

Fill blank: measured pIC50 of the compound Cc1ccc(N2C[C@@H](C)C[C@@H](NC(=O)[C@@H]3CCCN3)C2)c2cccnc12 [Example 122] is ____.
< 6.82

Fill blank: measured pIC50 of the compound Cc1c(F)cc(N2C[C@H](NC(=O)[C@@H]3CCCN3)C[C@H](C(F)(F)F)C2)c2cccnc12 [Example 115] is ____.
< 6.82

Fill blank: measured pIC50 of the compound C[C@@H]1CN(c2ccc(C#N)c3nccnc23)C[C@H](CN2CCC(F)(C(=O)O)CC2)O1 [Example 228] is ____.
> 7.12

Fill blank: measured pIC50 of the compound C[C@@H]1CN(c2cnc(C#N)c3ncccc23)C[C@H](CN2CCNCC2)O1 [Example 366] is ____.
> 7.12

Fill blank: measured pIC50 of the compound C[C@H]1C[C@@H](N)CN(c2cnc(C(F)(F)F)c3ncccc23)C1 [Example 7, hydrochloride] is ____.
> 7.12
